Reference for the values: patent US20170298096A1

Biological target: T1, His-tagged P3028 (human, not fully specified)
T1 construct: the tag is put first after 'PGE73=His-tag-P3028'; also called PGE73; not shown: His-tag
T1 peptide: {His‑tag}-VFDEFKPLVEEPQNLIK
Test: chip ELISA
No end group written: not given here.
endpointName: ELISA signal
Write the value as a bare number.

// returns reported ELISA signal for input KKLDTFFVKLSLKTER [P28R F13K]
220

// returns reported ELISA signal for input KKLDTFFVKDSLFTER [P28R L10D]
102

// returns reported ELISA signal for input KKLDTLFVKLSLFTER [P28R F6L]
408

// returns reported ELISA signal for input KKLDTFFVTLSLFTER [P28R K9T]
347

// returns reported ELISA signal for input KKLDTFAVKLSLFTER [P28R F7A]
426

// returns reported ELISA signal for input KKLDTFKVKLSLFTER [P28R F7K]
232

// returns reported ELISA signal for input KKLDTFFVKLSNFTER [P28R L12N]
462
